# pIC50 annotations
target: serotonin receptors from calf hippocampus (Bos taurus)
Sequence (F6Q2H9 1-422): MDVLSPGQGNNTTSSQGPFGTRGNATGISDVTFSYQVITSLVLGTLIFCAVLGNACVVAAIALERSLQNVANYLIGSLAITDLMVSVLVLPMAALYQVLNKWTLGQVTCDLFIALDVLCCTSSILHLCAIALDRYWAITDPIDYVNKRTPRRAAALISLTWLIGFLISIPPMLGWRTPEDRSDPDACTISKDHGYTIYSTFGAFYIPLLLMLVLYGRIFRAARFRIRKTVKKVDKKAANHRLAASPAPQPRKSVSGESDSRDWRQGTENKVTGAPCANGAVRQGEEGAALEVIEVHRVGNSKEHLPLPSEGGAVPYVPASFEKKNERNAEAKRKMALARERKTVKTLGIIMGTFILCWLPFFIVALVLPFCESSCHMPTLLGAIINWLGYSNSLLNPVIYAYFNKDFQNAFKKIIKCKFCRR
pIC50: −log10 of the molar value.

[
  {
    "smiles text": "O=C1c2ccc([N+](=O)[O-])cc2S(=O)(=O)N1CCCCN1CCN(c2ncccn2)CC1",
    "pIC50": 7.70
  },
  {
    "smiles text": "O=C1c2ccc(Cl)cc2S(=O)(=O)N1CCCCN1CCN(c2ncccn2)CC1",
    "pIC50": 7.52
  },
  {
    "smiles text": "O=C1c2ccccc2C(=O)N1CCCCN1CCN(c2ncccn2)CC1",
    "pIC50": 8.00
  },
  {
    "smiles text": "O=C1Nc2ccccc2S(=O)(=O)N1CCCN1CCN(c2ncccn2)CC1",
    "pIC50": 8.00
  }
]
